Test system: aP2
TEST_METHOD_NOTES: aP2 mRNA expression in adipocytes (real-time PCR)
Format: cell-based, human
RECORDED_CONDITIONS: differentiating adipocytes transfected with oligomeric compound; Table 75
In the oligonucleotide strings, read from the 5' end, every base follows the letter of its sugar. An asterisk marks phosphorothioate; unmarked linkages are phosphodiester. Other units and linkages are bracketed, terminal groups are in braces. A string of capitals states the bases alone. e = 2'-O-(2-methoxyethyl) (MOE); [5mC] = 5-methylcytosine
MEASURED_QUANTITY: aP2 mRNA

The cases that follow already have their aP2 mRNA on record.
SUBSTANCE	ASSAYED_TARGET	aP2 mRNA
328095 (antisense eT*e[5mC]*eA*e[5mC]*eA*eG*eA*eG*eA*eA*eA*eA*e[5mC]*eA*eA*e[5mC]*eT*eG*eG*eT*eA) [compound 328095]	aP2	70 percentage of untreated control (UTC)
346689 (CAUCAUUACCAGGCAGUAUUAGAG; all 2'-MOE, all phosphorothioate, methylation of C and T or U not given here) [compound 346689]	aP2	79 percentage of untreated control (UTC)
346921 (AACAACCAGCUAAGACACUGCCA; all 2'-MOE, all phosphorothioate, methylation of C and T or U not given here) [compound 346921]	aP2	69 percentage of untreated control (UTC)
344277 (antisense AAUACAUACUUCUUUACAUUCCA; all 2'-MOE, all phosphorothioate, methylation of C and T or U not given here) [compound 344277]	aP2	61 percentage of untreated control (UTC)

Consider now this further substance.
Kindly note the recorded aP2 mRNA for 341801 (antisense CCUAUCUCCCCUCUGGACC; all 2'-MOE, all phosphorothioate, methylation of C and T or U not given here) [compound 341801] , which is 90 percentage of untreated control (UTC)

###

Below is a list of entries, each paired with its recorded HSL value.
Tested on: differentiated adipocytes
TEST_METHOD_NOTES: Hallmark genes and triglycerides in differentiated adipocytes
Type: cell-based, human
RECORDED_CONDITIONS: Table 28; differentiated adipocytes transfected day nine post-differentiation; 250 nM oligonucleotide
In the oligonucleotide strings, read from the 5' end, every base follows the letter of its sugar. An asterisk marks phosphorothioate; unmarked linkages are phosphodiester. Other units and linkages are bracketed, terminal groups are in braces. A string of capitals states the bases alone. e = 2'-O-(2-methoxyethyl) (MOE); [5mC] = 5-methylcytosine; d = 2'-deoxy (DNA)
Field format: numeric only.

SUBSTANCE	HSL
327934 (antisense eG*eG*eT*eA*e[5mC]*eA*eA*eT*e[5mC]*eA*eA*e[5mC]*eG*eG*eT*e[5mC]*eG*eA*eT*eG*eG*eT) [compound 327934]	1.97
327913 (antisense eA*eA*e[5mC]*e[5mC]*eG*eA*eT*eT*eT*e[5mC]*eA*eA*eA*eT*eG*eG*eT*eG*e[5mC]*eT*eA*eG) [compound 327913]	1.09
327922 (antisense eT*e[5mC]*eA*eG*eT*eT*eT*eT*eG*e[5mC]*eA*eT*eG*eG*eA*eT*eT*eT*eG*e[5mC]*eA*e[5mC]*eA) [compound 327922]	1.01
328382 (e[5mC]*eA*eG*eA*e[5mC]*dT*d[5mC]*d[5mC]*d[5mC]*dA*dA*d[5mC]*dT*dG*dA*e[5mC]*e[5mC]*eA*eG*eA) [compound 328382]	0.53

Consider now this further substance.
Kindly note the recorded HSL for 327878 (antisense e[5mC]*eT*eA*eG*eT*eG*eG*eT*e[5mC]*e[5mC]*eT*eA*eA*eA*e[5mC]*eA*eT*eT*eT*e[5mC]*eA*e[5mC]) [compound 327878] , which is 0.19

###

Below is a list of entries, each paired with its recorded TG (triglyceride accumulation) value.
Tested on: adipocytes
TEST_METHOD_NOTES: Triglyceride accumulation assay in adipocytes
Format: cell-based, human
RECORDED_CONDITIONS: differentiating adipocytes transfected with oligomeric compound; Table 75
In the oligonucleotide strings, read from the 5' end, every base follows the letter of its sugar. An asterisk marks phosphorothioate; unmarked linkages are phosphodiester. Other units and linkages are bracketed, terminal groups are in braces. A string of capitals states the bases alone. e = 2'-O-(2-methoxyethyl) (MOE); [5mC] = 5-methylcytosine

Kindly note the recorded TG (triglyceride accumulation) for 341796 (antisense UCAUACAGCUAGAUAACCAAAGA; all 2'-MOE, all phosphorothioate, methylation of C and T or U not given here) [compound 341796] , which is 59 percentage of untreated control (UTC)

Kindly note the recorded TG (triglyceride accumulation) for 328089 (antisense eA*e[5mC]*eT*eG*eT*eA*eG*eG*eA*eA*eT*eA*eT*eG*eT*eT*eT*eG*eA*eT*eA) [compound 328089] , which is 67 percentage of untreated control (UTC)

Kindly note the recorded TG (triglyceride accumulation) for 341795 (antisense AACCAAUGUGCAGACUACUGUA; all 2'-MOE, all phosphorothioate, methylation of C and T or U not given here) [compound 341795] , which is 57 percentage of untreated control (UTC)

###

Tested on: mir-21 miRNA
TEST_METHOD_NOTES: pGL3-mir-21 sensor luciferase assay in HeLa cells
Type: cell-based, human
RECORDED_CONDITIONS: Table 44, pGL3-mir-21 sensor-expressing HeLa cells, 10 nM
In the oligonucleotide strings, read from the 5' end, every base follows the letter of its sugar. An asterisk marks phosphorothioate; unmarked linkages are phosphodiester. Other units and linkages are bracketed, terminal groups are in braces. A string of capitals states the bases alone. e = 2'-O-(2-methoxyethyl) (MOE); [5mC] = 5-methylcytosine; d = 2'-deoxy (DNA)
MEASURED_QUANTITY: luciferase expression % UTC (% UTC)
Could you give me the number in % UTC? Just the number is fine.

The cases that follow already have their luciferase expression % UTC on record.
SUBSTANCE	QUANTITATIVE_RESULT
338697 (antisense TGCCATGAGATTCAACAGTC; all 2'-MOE, all phosphorothioate, methylation of C not given here) [compound 338697]	87.0
328415 (antisense eT*eG*e[5mC]*e[5mC]*eA*dT*dG*dA*dG*dA*dT*dT*d[5mC]*dA*dA*e[5mC]*eA*eG*eT*e[5mC]) [compound 328415]	66.0
327901 (antisense eT*eG*eA*eG*e[5mC]*eT*eA*e[5mC]*eA*eG*eT*eG*e[5mC]*eT*eT*e[5mC]*eA*eT*e[5mC]*eT*e[5mC]*eA) [compound 327901]	74.2

Short answer on mir-21 miRNA for 327917 (antisense eT*e[5mC]*eA*eA*e[5mC]*eA*eT*e[5mC]*eA*eG*eT*e[5mC]*eT*eG*eA*eT*eA*eA*eG*e[5mC]*eT*eA) [compound 327917] , luciferase expression % UTC: 1037.6

###

Below is a list of entries, each paired with its recorded aP2 mRNA value.
Tested on: aP2
TEST_METHOD_NOTES: aP2 mRNA expression in adipocytes (real-time PCR)
Format: cell-based, human
RECORDED_CONDITIONS: differentiating adipocytes transfected with oligomeric compound; Table 75
In the oligonucleotide strings, read from the 5' end, every base follows the letter of its sugar. An asterisk marks phosphorothioate; unmarked linkages are phosphodiester. Other units and linkages are bracketed, terminal groups are in braces. A string of capitals states the bases alone. e = 2'-O-(2-methoxyethyl) (MOE); [5mC] = 5-methylcytosine

The cases that follow already have their aP2 mRNA on record.
SUBSTANCE	MEASURED_QUANTITY	RESULT
327965 (antisense eA*eT*e[5mC]*eA*e[5mC]*eA*eT*eA*eG*eG*eA*eA*eT*eA*eA*eA*eA*eA*eG*e[5mC]*e[5mC]*eA*eT*eA) [compound 327965]	aP2 mRNA	67 percentage of untreated control (UTC)
327898 (antisense eG*eT*eA*eG*eT*eG*e[5mC]*eT*eT*eT*e[5mC]*eT*eA*e[5mC]*eT*eT*eT*eA*eT*eG) [compound 327898]	aP2 mRNA	96 percentage of untreated control (UTC)
344341 (CACAUGGUUAGAUCAAGCACAA; anti-miR; all 2'-MOE, all phosphorothioate, methylation of C and T or U not given here) [compound 344341]	aP2 mRNA	42 percentage of untreated control (UTC)

Consider now this further substance.
Kindly note the recorded aP2 mRNA for 328106 (antisense eA*eT*eT*eG*eA*eT*eG*e[5mC]*eG*e[5mC]*e[5mC]*eA*eT*eT*eT*eG*eG*e[5mC]*e[5mC]*eT*eA) [compound 328106] , which is 91 percentage of untreated control (UTC)

###

Below is a list of entries, each paired with its recorded % cells in cell cycle phase: G2/M value.
Test system: A549 cells
TEST_METHOD_NOTES: Cell cycle assay in A549 cells
Assay type: cell-based, human
RECORDED_CONDITIONS: A549 cells, 25 nM, 24 hours; relative to the untreated control cells in that phase
Could you give me the number in %? Just the number is fine.

SUBSTANCE	MEASURED_QUANTITY	QUANTITATIVE_RESULT
338836 (antisense TCCTCGGTGGCAGAGCTCAG; all 2'-MOE, all phosphorothioate, methylation of C not given here) [compound 338836]	% cells in cell cycle phase: G2/M	97
340350 (antisense TGCTCAATAAATACCCGTTGAA; all 2'-MOE, all phosphorothioate, methylation of C not given here) [compound 340350]	% cells in cell cycle phase: G2/M	95
338769 (antisense GCTTCCCAGCGGCCTATAGT; all 2'-MOE, all phosphorothioate, methylation of C not given here) [compound 338769]	% cells in cell cycle phase: G2/M	114

Consider now this further substance.
Short answer on A549 cells for 338637 (antisense TCAGAGCGGAGAGACACAAG; all 2'-MOE, all phosphorothioate, methylation of C not given here) [compound 338637] , % cells in cell cycle phase: G2/M: 101
